Data provenance is patent US9815851B2.

Listed here: items and their measured pIC50 (REN).
Target: RORγ (UniProt P51449)
Test: RORγ Gal4 Reporter Gene Assay in 293T cells (firefly and renilla luciferase)
Format: cell-based, human
Settings: third value of the cell; Gal4 reporter gene assay in 293T cells, renilla normalised luciferase
assay_metric: pIC50 (REN)

Cc1c(C(=O)NCC(C)(C)CC(=O)O)cc(-c2ccc(S(=O)(=O)NC(C)(C)C)c(C(F)(F)F)c2)n1CC1CCCCC1 [17/134]	7.7
Cc1c(C(=O)NC2CCOCC2)cc(-c2ccc(S(=O)(=O)NCC(F)(F)F)c(C(F)(F)F)c2)n1CC1CCCCC1 [17/140]	8.1
Cc1c(-c2cc(C(=O)NCC(C)(C)O)c(C)n2CC2CCCCC2)nc(C2(C)CC2)nc1C(C)(C)C [17/82]	6.7
Cc1c(C(=O)NC2CCOCC2)cc(-c2cc(Cl)c(S(=O)(=O)NC(C)(C)C)c(Cl)c2)n1CC1CCCCC1 [17/235]	7.6
Cc1c(C(=O)NC2COC2)cc(-c2cn(S(=O)(=O)N3CCCCC3)c3ccccc23)n1CC1CCCCC1 [9/1]	7.5
Cc1c(C(=O)NC2CCOCC2)cc(-c2ccc(S(=O)(=O)NC(C)(C)C)c3c2CCCC3)n1CC1CCCCC1 [17/280]	8.1
Cc1c(C(=O)N2CCCC(C)(C(=O)O)C2)cc(-c2ccc(S(=O)(=O)NC(C)(C)C)c(C(F)(F)F)c2)n1CC1CCCCC1 (stereo not drawn) [17/225]	7.6
Cc1c(C(=O)NC2CCOCC2)cc(-c2ccc(S(=O)(=O)NC(C)(C)C)c(C(F)(F)F)c2)n1CC1(C)CCCC1 [17/176]	7.0
Cc1c(C(=O)NC2CCOCC2)cc(-c2ccc(S(N)(=O)=O)c(C(F)(F)F)c2)n1CC1CCCCC1 [Example 19]	6.4
Cc1c(C(=O)NC2CCOCC2)cc(-c2ccc(S(=O)(=O)NC3(C)COC3)c(C(F)(F)F)c2)n1CC1CCCCC1 [17/145]	7.7
Cc1c(C(=O)NC2COC2)cc(-c2cc(C(F)(F)F)cc(C3(C)CC3)c2)n1CC1CCCCC1 [1/79]	7.2
Cc1c(C(=O)NC2CC23CCOCC3)cc(-c2ccc(S(=O)(=O)NC(C)(C)C)c(C(F)(F)F)c2)n1CC1CCCCC1 (stereo not drawn) [17/210]	8.1
Cc1c(C(=O)NCCC(C)(C)C(=O)O)cc(-c2ccc(S(=O)(=O)NC3(C#N)CC3)c(C(F)(F)F)c2)n1CC1CCCCC1 [17/361]	6.4
Cc1c(C(=O)N2CC(O)C2)cc(-c2ccc(S(=O)(=O)NC(C)(C)C)c(C(C)(C)C)c2)n1CC1CCCCC1 [17/94]	6.7
Cc1c(C(=O)NC2CCOCC2)cc(-c2ccc(S(=O)(=O)NC(C)C)c(C(F)(F)F)c2)n1CC1CCCCC1 [17/112]	7.5

----------
# maps each entry to its pIC50 (REN)
Target: RORγ (UniProt P51449)
Test: RORγ Gal4 Reporter Gene Assay in 293T cells (firefly and renilla luciferase)
Assay type: cell-based, human
Conditions: third value of the cell; Gal4 reporter gene assay in 293T cells, renilla normalised luciferase
assay_metric: pIC50 (REN)

Cc1c(C(=O)NC2CCS(=O)(=O)C2)cc(-c2cc(C(C)(C)C)c3c(c2)C2(CCO3)CC2)n1CC1CCCCC1 (stereo not shown) [17/15]	7.1
Cc1c(C(=O)NC2CCOCC2)cc(-c2ccc(-c3cnn(C(C)(C)C)c3)c(C(C)(C)C)c2)n1CC1CCCCC1 [26/2]	7.2
Cc1c(C(=O)NC2COC2)cc(-c2ccc(C(=O)N(C)C(C)(C)C)c(C(C)(C)C)c2)n1CC1CCCCC1 [1/31]	6.4
